- tgt: Aβ 1-42 (Homo sapiens, UniProt P05067)
- Construct: Aβ 1-40 and Aβ 1-42, >98% pure) were purchased from Bachem
- Sequence (P05067 672-713 limits assumed): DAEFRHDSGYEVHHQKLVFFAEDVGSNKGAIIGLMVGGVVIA
- measurement_description: Thioflavin T fluorescence assay of Aβ 1-42 fibrillization (Example 2)
- test_parameters: Aβ1-42 fibrillization, 24 hours, calculated by the curve equation; read-out: apparent IC50
pIC50: −log10 of the molar value.
Reported pIC50 values follow for various compounds

- compound: "OCc1c[nH]c2ccccc12"
  pIC50: "~3.70"
- compound: "Oc1c[nH]c2ccccc12 [3-hydroxyindole]"
  pIC50: "~4.00"
- compound: "Oc1cccc2[nH]ccc12 [4-hydroxyindole]"
  pIC50: "~4.07"

====

- tgt: Aβ 1-42 (Homo sapiens, UniProt P05067)
- Construct: Aβ 1-40 and Aβ 1-42, >98% pure) were purchased from Bachem; purchased Bachem (Bubendorf, Switzerland); host or cells: chemical synthesis
- measurement_description: Thioflavin T fluorescence assay of Aβ 1-42 fibrillization (Example 2)
- Type: biochemical
- test_parameters: 50 μM compound, 5 μM Aβ 1-42, 24 hours at 37° C.
measurement_type: inhibition of β-amyloid polypeptide fibril formation

- compound: "OCc1c[nH]c2ccccc12 [indole-3-carbinol]"
  obs_value: "significantly inhibited"
- compound: "Oc1cccc2[nH]ccc12 [4-hydroxyindole]"
  obs_value: "significantly inhibited"
- compound: "Oc1c[nH]c2ccccc12 [3-hydroxyindole]"
  obs_value: "significantly inhibited"
